The following compounds are listed with their measured composite z-score values.
# measurement-protocol: binders of probe aFST on microarray, primary screen, stem cell growth factor project, biochemical, small-molecule microarray, fluorescence 635/667 (AID 1086);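 also: score merges 667 nm fluorescence with signal-to-noise of each printed compound spot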
# run-parameters: higher = more signal

Study these solved cases before continuing.
INSERT INTO measurements (compound, property, reported_result) VALUES
  ('COCCOC(=O)N1C(=O)[C@@]2(c3ccccc31)[C@H](C(=O)Nc1nc3ccccc3s1)[C@H]1C(=O)O[C@H](c3ccccc3)[C@H](c3ccccc3)N1[C@@H]2c1ccccc1OCCO', 'composite z-score', 0.318),
  ('O=C(NC1CC1)[C@@H]1c2ccccc2C(=O)N(C2CCCCC2)[C@H]1c1ccc(CO)cc1', 'composite z-score', 0.575),
  ('C=C(CCCC)C(=O)CC[C@@H](OC(C)=O)c1ccc(OCCO)cc1', 'composite z-score', 0.0685),
  ('[N-]=[N+]=Nc1ccccc1C[C@]1(C(N)=O)COC(c2ccc(OCCCO)cc2)=N1', 'composite z-score', 0.236),
  ('O=C(c1ccccc1)N1Cc2ccccc2C[C@@]2(N=C(c3ccc(OCCCO)cc3)O[C@H]2c2ccccc2)C1=O', 'composite z-score', 0.229),
  ('CCOC(=O)C1=C[C@@H](C(C)(C)C)N(S(=O)(=O)c2ccc(C)cc2)[C@H]1c1ccc(OC)cc1', 'composite z-score', 0.525),
  ('CCCCN1CC=CC23O[C@@H]4C=CCCOC(=O)C4[C@H]2C(=O)N(CCO)[C@@H]3C1=O (stereo partly specified)', 'composite z-score', -1.01),
  ('COc1ccc(C(O)C2C=CC3C(=O)N(c4ccccc4)C(=O)C3N2Nc2ccccc2F)c2ccccc12 (stereo unspecified)', 'composite z-score', 1.89);

query: Could you please provide reported composite z-score for CC(C)C[C@@H]1NC(=O)[C@@H]2C[C@H](C(=O)NCCCCCCNC(=O)CS)[C@H](c3ccc(O)cc3)N2C1=O ? Thanks!
result: 0.694

query: Could you please provide reported composite z-score for CCCCCCCCCCC(O)C1C=CC2C(=O)N(C)C(=O)C2N1Nc1ccccc1 (stereo unspecified) ? Thanks!
result: -0.191

query: Could you please provide reported composite z-score for CC(C)c1ccc(NN2C(C(O)C(C)c3ccccc3)C=CC3C(=O)N(c4ccccc4)C(=O)C32)cc1 (stereo unspecified) ? Thanks!
result: 1.97

query: Could you please provide reported composite z-score for C=CCNC(=O)[C@@H]1[C@H]2C(=O)O[C@H](c3ccccc3)[C@H](c3ccccc3)N2[C@H](c2ccc(OCCO)cc2)[C@@]12C(=O)Nc1ccc(C#CCNC(N)=O)cc12 ? Thanks!
result: 0.675

* * *

# Tested on: XIP peptide (Xip251-270) binding
# measurement-protocol: small-molecule binders of XIP peptide, primary screen, biochemical, small-molecule microarray, fluorescence 635/667 nm, 0.1 µg/mL protein (AID 1182)
# run-parameters: fluorescent protein binding, 635 nm, higher = more signal, called active from +8 up or from −8 down
Activity calls are given as the source filed them.
property: composite z-score

Study these solved cases before continuing.
INSERT INTO results (smiles_repr, property, reported_result) VALUES
  ('C=C(C(=O)CC[C@H](OC(=O)c1ccccc1-c1ccccc1C(=O)O)c1ccc(OCCO)cc1)C(C)C', 'composite z-score', '0.0052 (inactive)'),
  ('C=CC[C@@]1(C(=O)NCCCOC)N=C(c2ccc(OCCCO)cc2)O[C@@H]1c1ccccc1CN=[N+]=[N-]', 'composite z-score', '0.204 (inactive)'),
  ('C=C(COC)/C(=C/C[C@@H](OC(=O)c1ccncc1)c1ccccc1OCCO)c1cnc2ccccc2c1', 'composite z-score', '0.882 (inactive)');

Lab note: next compound to report on.
query: Could you please provide reported composite z-score for C=CCNC(=O)[C@@H]1[C@H]2C(=O)O[C@H](c3ccccc3)[C@H](c3ccccc3)N2[C@H](c2ccc(O)cc2)[C@@]12C(=O)N(C(=O)OCCOC)c1ccc(C#CCC(C(=O)OC)C(=O)OC)cc12 ? Thanks!
result: 0.891 (inactive)
